Quick reference for growth among some compounds
- Test system: SF-539 CNS
- protocol_description: NCI-60 one-dose screen, 48 h (100 = growth as untreated, 0 = no growth, -100 = all killed)
- experimental_context: 10 µM unless noted
About 83,000 compounds went through this panel and 20% of them were active in at least one assay; those are over-represented in the sample as a whole.

[
  {
    "compound_structure": "O=C1Nc2ccccc2/C1=C/c1cccn1CCCCCn1c2ccccc2c(=O)c2ccccc21",
    "unit_text": "%",
    "growth": 94.2
  },
  {
    "compound_structure": "COC(=O)/C=C1/SC(=Nc2ccc([N+](=O)[O-])cc2)N(CCc2c[nH]c3ccccc23)C1=O",
    "unit_text": "%",
    "growth": 79.6
  },
  {
    "compound_structure": "CCc1c2c(nc3ccc(OCc4ccc(B5OC(C)(C)C(C)(C)O5)cc4)cc13)-c1cc3c(c(=O)n1C2)COC(=O)[C@]3(O)CC",
    "unit_text": "%",
    "growth": -35.6
  }
]

Value source: PubChem BioAssay (NCI)
